test: Cytotoxicity against mouse J774 cells; assay type: cell-based; details: read-out: ID50 (the source's name)
MEASURED QUANTITY: CC50 (µM)
Report as a plain number; the unit µM is understood.

// solved cases for CC50 follow
RECORD SMILES: CC(=O)c1c(C(F)(F)F)[n+]([O-])c2ccccc2[n+]1[O-]
CC50 [µM]: 8.55

RECORD SMILES: CC(C)C(=O)c1c(C(F)(F)F)[n+]([O-])c2cc(F)c(F)cc2[n+]1[O-]
CC50 [µM]: 11.5

Task item: Specify CC50 for O=C(c1c(C(F)(F)F)[n+]([O-])c2ccccc2[n+]1[O-])N1CCN(c2ccc(Cl)cc2)CC1 and stop.
Reply: 8.25

---

experiment: Selectivity index, ratio of ID50 for mouse J774 cells to ID50 for Trypanosoma cruzi Tulahuen 2 epimastigotes; format: toxicity, cell-based; conditions: J774 cells versus Trypanosoma cruzi Tulahuen 2 epimastigotes, read-out: Selectivity Index
MEASURED QUANTITY: selectivity ratio
Output spec: single numeric token, no unit.

RECORD SMILES: O=C(c1c(C(F)(F)F)[n+]([O-])c2ccccc2[n+]1[O-])N1CCN(c2ccc(Cl)cc2)CC1
selectivity ratio: 10.4

RECORD SMILES: CC(=O)c1c(C(F)(F)F)[n+]([O-])c2ccccc2[n+]1[O-]
selectivity ratio: 2.8

Proceed to the following item.
Task item: Quick one: give measured selectivity ratio for O=C(c1cccs1)c1c(C(F)(F)F)[n+]([O-])c2ccccc2[n+]1[O-]
Reply: 4.3

---

system: Trypanosoma cruzi; experiment: Antitrypanosomal activity against Trypanosoma cruzi Colombiana epimastigotes assessed as cell death after 2 days by MTT assay; format: functional; settings: 48 h, read-out: ID50 (the source's name)
MEASURED QUANTITY: pIC50
The quantity pIC50 is defined as the negative base-10 logarithm of the molar concentration.

Example entries and their recorded answers appear below.
COMPOUND: CC1CS(=O)(=O)CCN1/N=C/c1ccc([N+](=O)[O-])o1 (stereo not drawn) [NIFURTIMOX]
pIC50: 5.47

COMPOUND: Cc1c(Sc2ccccc2)[n+]([O-])c2cc(Cl)c(Cl)cc2[n+]1[O-]
pIC50: 5.77

Could you now look at the following compound, please?
Task item: Identify measured pIC50 associated with Cc1c(C(=O)c2ccccc2)[n+]([O-])c2cc(F)c(F)cc2[n+]1[O-]
Reply: 5.35

---

assay: Selectivity index, ratio of ID50 for mouse J774 cells to ID50 for Trypanosoma cruzi Tulahuen 2 epimastigotes; assay type: toxicity, cell-based; details: J774 cells versus Trypanosoma cruzi Tulahuen 2 epimastigotes, read-out: Selectivity Index
A collection of molecules and their measured selectivity ratio
Answer using only a numeral; do not append any unit.

Here are 2 molecules together with their reported answers.
MOLECULE: O=C(c1c(C(F)(F)F)[n+]([O-])c2ccccc2[n+]1[O-])N1CCN(c2ccccc2)CC1
MEASURED VALUE: 12.5
//
MOLECULE: CC1CS(=O)(=O)CCN1/N=C/c1ccc([N+](=O)[O-])o1 (centres undefined)
MEASURED VALUE: 41

Could you now look at the following molecule, please?
Task item: Recall and state the measured selectivity ratio for O=C(c1ccc(Cl)cc1)c1c(C(F)(F)F)[n+]([O-])c2ccccc2[n+]1[O-] .
Reply: 5.3

---

test system: Trypanosoma cruzi; assay: Antitrypanosomal activity against Trypanosoma cruzi Y epimastigotes assessed as cell death after 2 days by MTT assay; assay type: functional; settings: 48 h, read-out: ID50 (the source's name)
MEASURED QUANTITY: pIC50
Keep it numeric: pIC50 is minus log10 of the concentration in mol/L.

COMPOUND: O=C(c1ccccc1)c1c(C(F)(F)F)[n+]([O-])c2cc(F)c(F)cc2[n+]1[O-]
pIC50: 5.74

COMPOUND: CC1CS(=O)(=O)CCN1/N=C/c1ccc([N+](=O)[O-])o1 (stereo unspecified) [NIFURTIMOX]
pIC50: 5.01

Task item: Provide pIC50, system Trypanosoma cruzi, entry Cc1c(C(=O)c2ccccc2)[n+]([O-])c2cc(F)c(F)cc2[n+]1[O-]
Reply: 4.74

Task item: Given CCOC(=O)c1c(-c2ccccc2)[n+]([O-])c2cc(Cl)c(Cl)cc2[n+]1[O-] , report its pIC50 on Trypanosoma cruzi.
Reply: 5.15

Task item: Supply pIC50 measured with Trypanosoma cruzi for O=C(c1ccccc1)c1c(C(F)(F)F)[n+]([O-])c2ccccc2[n+]1[O-] .
Reply: 5.40

Task item: System Trypanosoma cruzi. Read-out pIC50. Item Cc1c(Sc2ccccc2)[n+]([O-])c2cc(Cl)c(Cl)cc2[n+]1[O-] . Report value.
Reply: 5.54
